- study-system: Mannose-6-phosphate isomerase (Homo sapiens) (UniProt P34949)
- Sequence (P34949 whole entry, looked up): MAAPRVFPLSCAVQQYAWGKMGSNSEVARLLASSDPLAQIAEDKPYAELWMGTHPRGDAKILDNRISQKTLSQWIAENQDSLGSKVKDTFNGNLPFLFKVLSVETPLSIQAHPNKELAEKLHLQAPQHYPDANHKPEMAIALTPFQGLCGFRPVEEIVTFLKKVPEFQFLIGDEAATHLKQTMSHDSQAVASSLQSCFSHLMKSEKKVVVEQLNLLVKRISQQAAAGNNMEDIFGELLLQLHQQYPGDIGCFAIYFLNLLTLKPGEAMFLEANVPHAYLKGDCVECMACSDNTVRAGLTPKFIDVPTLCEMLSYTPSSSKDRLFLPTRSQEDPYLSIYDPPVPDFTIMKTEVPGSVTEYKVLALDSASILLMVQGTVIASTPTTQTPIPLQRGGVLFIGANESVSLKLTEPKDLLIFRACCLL
- assay-details: MPI enzyme activity enhancement – biochemical, fluorescence intensity, near-Km mannose 6-phosphate, primary screen (AID 1214)
- condition-summary: purified human PMI, coupled resazurin fluorescence, 20 min; at 20 µM; active compounds read high; 1 = vehicle control, 0 substrate-free wells
Screen size: about 190,000 compounds; about 10 (0.005%) were called active. Only a sample is shown.
recorded-metric: activation factor
Give bare numbers.

Before answering, review these 5 worked examples.
CCc1ccc(N(CC(=O)Nc2sc3c(c2C(=O)OC)CCCC3)S(C)(=O)=O)cc1 : 0.8
COCCCNC(=O)C1CCC(CNS(=O)(=O)c2ccc(OC)cc2)CC1 (configuration not stated) : 1
COC(=O)c1cc(NC(=O)c2nn(C)c(=O)c3ccccc23)cc(C(=O)OC)c1 : 1
O=C(CSc1cccc[n+]1[O-])c1ccc(-c2ccccc2)cc1 : 1.2
Cc1ccc(-c2ccc(/C=C(\C#N)C(N)=S)o2)c([N+](=O)[O-])c1 : 1

Please look at the items below and tell me activation factor for each one, in order.
1. CCOC(=O)c1cc2c(=O)n3ccccc3nc2n(CC(C)C)c1=NC(=O)c1c(-c2c(F)cccc2Cl)noc1C
2. COc1ccccc1CNC(=O)COc1ccc(C)nc1[N+](=O)[O-]

(A)
[1, 1.1]

----------
- study-system: Mannose-6-phosphate isomerase (Homo sapiens) (UniProt P34949)
- assay-details: MPI enzyme activity enhancement – biochemical, fluorescence intensity, near-Km mannose 6-phosphate, primary screen (AID 1214)
- condition-summary: purified human PMI, coupled resazurin fluorescence, 20 min; at 20 µM; active compounds read high; 1 = vehicle control, 0 substrate-free wells
Among all 190,000 compounds or so, about 10 (0.005%) were called active. These entries were drawn from the full list.
recorded-metric: activation factor
Numbers only.

Cc1ccc(CN2CCN(Cc3ccccc3-c3ccco3)CC2CCO)o1 (stereo not given) : 0.9

Please look at the items below and tell me activation factor for each one, in order.
1. CCOC(=O)c1c(C)[nH]c(C2=NNC(=NC(C)COC)SC2)c1C (stereo not given)
2. COc1ccc(Cl)cc1-n1c(C)cc(C(=O)OCC(=O)N2CC(=O)Nc3ccccc32)c1C
3. CCOC(=O)CCCNC(=O)COC(=O)/C=C/c1ccc2c(c1)OCO2
4. CCC(C)(C)C1CCC(=NNC(=O)c2ccc(Br)o2)CC1 (stereo not given)

(A)
[1.3, 0.9, 1.1, 1]
